Values from paper PMC2248166

Give pIC50 for every item shown.
assay target: HLA A*3201 (Homo sapiens, UniProt P04439, A270S/D101S/D185E/E176V/E277Q/F133L/G103R/G107R/G231S/H175R/I121M/I218V/I322F/K168Q/L105A/L300P/L318F/M331R/P208A/P217A/Q94H/R106L/R138Q/S129P/T104I/T323A/T345S/V100E/V321M/V358M)
experiment summary: biochemical
Where a SMILES comes first, the peptide text is derived from it.
Friendly reminder that pIC50 comes from taking -log10 of the concentration in mol/L.

Query string: Can you look up the measured pIC50 of CC(C)C[C@H](NC(=O)[C@@H](N)CC(C)C)C(=O)N[C@@H](Cc1ccccc1)C(=O)N[C@@H](Cc1ccc(O)cc1)C(=O)N[C@H](C(=O)N[C@@H](CCCNC(=N)N)C(=O)N[C@@H](Cc1c[nH]cn1)C(=O)N[C@@H](CCCNC(=N)N)C(=O)N[C@@H](Cc1ccccc1)C(=O)O)[C@@H](C)O [3102.1058] (H-LLFYTRHRF-OH) for me?
Result string: 8.59

Query string: Would you mind telling me what pIC50 value was observed for CC[C@H](C)[C@H](N)C(=O)N[C@@H](CO)C(=O)N[C@@H](Cc1c[nH]c2ccccc12)C(=O)N[C@@H](CCSC)C(=O)N[C@@H](CCSC)C(=O)N[C@@H](CCCCN)C(=O)N[C@@H](CC(C)C)C(=O)NCC(=O)N[C@H](C(=O)O)[C@@H](C)CC [3102.0399] (H-ISWMMKLGI-OH) ?
Result string: 7.38
